EXPERIMENTAL_PROTOCOL: gradient 5% acetonitrile 3 min, to 50% in 2 min, to 85% in 15 min, held 3 min, 100 µL/min
PROTOCOL_CONDITIONS: column: Zorbax Extend-C18 2.1 x 50 mm; eluents: water / acetonitrile, 0.1% formic acid
RP-LC retention time listing for selected compounds.

COMPOUND	RP-LC retention time
COCCOCc1nc(C2CCCN2C(=O)c2ccsc2)no1 (centres undefined)	679 s
CN(C)C(CNC(=O)c1cc(-c2cccs2)on1)c1ccc(F)cc1 (centres undefined)	668 s
CN(C)S(=O)(=O)c1ccc(C(=O)Nc2nc3c(s2)CCc2ccccc2-3)cc1	1110 s
O=C(NCCc1csc(-c2ccccc2)n1)C1CCN(S(=O)(=O)c2ccc(Cl)s2)CC1	1010 s
CCOC(=O)Cc1csc(NC(=O)c2cc(=O)c3ccccc3o2)n1	754 s
Cc1cccc(NC(=O)CSc2nnc3c4cc(-c5ccc(C)c(C)c5)nn4ccn23)c1	989 s
CCN1C(=O)COc2ccc(-c3nc(NC(=O)C4CCCO4)sc3C)cc21 (centres undefined)	844 s
COc1ccc(S(=O)(=O)Cc2nc(-c3ccc(Cl)cc3)no2)cc1	1030 s
C[C@H](NC(=O)Cc1cc(F)cc(F)c1)C(=O)N[C@H]1N=C(c2ccccc2)c2ccccc2N(C)C1=O	853 s
